- System: MS2 coat protein
- protocol-notes: apparent KD of MS2 coat protein, switch OFF state (with FMN for OFF switches, without FMN for ON switches); designed switch direction (-1 OFF switch, 1 ON switch): -1; higher = weaker reporter binding
- setup-conditions: FMN input: 0 or 200 uM; Eterna round: R93 (includes R88 designs)
quantity: apparent KD of MS2 coat protein (nM)

1) AGCUAGUCAGGAUAUACGAACAUGUCGCCAGAUGUGAAGGGACAUGAGGAUCACCCAUGUAGAAGGGACUAGCA [salish99-Ex2-23]
198
2) AAAACACAUGAGGAUCACCCAUGUGAGGAUAUGCUAUGGAAAAUAAAAAUAAAACAUAGCAGAAGGCACAAAGG [Denovo 18]
244
3) AAAAAGGUAGGAUAUACAUGAGGAUCACCCAUGUACAUAAAUGGAGAAAAAAACAGUAGUAGAAGGGCCAAAAA [Ex3 Malc#10]
36.9
4) AAAAACCUAGGAUAUACAUGAGGAUCACCCAUGUAAAGAAAAAAAAAGGGAAAAAAAAGUAGAAGGAGGAAGAA [JR_Exc003_Sub1201]
18.6
5) AAAGGACGAGGAUAUACAUGAGGAUCACCCAUGUAAAAAGCGUAGUAAAAGAACUUAUGUAGAAGGCGUCCAAA [Meechl Ex3 2 R2 v3]
137
6) AAUAAGUGAGGAUAUGCAAAUAAUAAAUAAAAUAAAAUAAAGCAGAAGGCACAUGAGGAUCACCCAUGUAAAUA [JR_Exc004_Sub001]
29.5
7) AAAGGGUCAGGAUAUGUACGAACAACAAAACAAAUAACGAUACAGAAGGGACAUGAGGAUCACCCAUGUAUAAA [May 74]
70.6

----------
- Test system: MS2 coat protein
- protocol-notes: apparent KD of MS2 coat protein; designed switch direction (-1 OFF switch, 1 ON switch): -1; higher = weaker reporter binding
- setup-conditions: input ligand: FMN 200 uM
quantity: apparent KD of MS2 coat protein (nM)

1. UUCCGACAUGAGGAUCACCCAUGUAAGGAUAUGCACUAGAGGGCAAACCCUCUUAACGGCAGAAGGUGCAGGGA [Qudile] (Eterna round: R97, puzzle: Exclusion 1)
115
2. AGCUGUGGCCGAGGAUAUCACGACCGAUGGAAAACCAUCGGAACUCCACAUGAGGAUCACCCAUGUGAGAAGGCGGUCUCAGCA [Eli eng2 - 028] (Eterna round: R96, puzzle: Exclusion NG 2)
27.3
3. ACUAUCAGAUUCUUAGGGUACAUGAGGAUCACCCAUGUGUACGUCUACGAGGGUUCGAAAAUCAAGCUCCGCUCGUC [Eternabot (L2) Solution 19] (Eterna round: R97, puzzle: Sensor, turn-off variant 1)
99.2
4. GCAGCAACUCUAAUCAAAACCACAUGAGGAUCACCCAUGUCUCAGGAUAUGGUCUGGAUUACAGGCCAGAAGGGAGAAAGCUGC [Eli exng3 - 050] (Eterna round: R96, puzzle: Exclusion NG 3)
13.3
5. CCAUAUUCGAAGGAUAUGCAAUUGGAUAGAUUCGCAGAAGGUCGAACAUGAGGAUCACCCAUGUCCCUGGUGAA [Eternabot (L2) Solution 89] (Eterna round: R97, puzzle: Exclusion 6)
903

----------
- Tested on: K4 kissing-loop RNA reporter;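 also: bound reporter read as fluorescence of individual clusters on recovered sequencing chips by microscopy, with normalized cluster intensities fitted with a binding model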
- protocol-notes: apparent KD of K4 kissing-loop reporter; higher = weaker reporter binding
- setup-conditions: Eterna round: R107; input ligand: FMN 200 uM
quantity: apparent KD of K4 kissing-loop reporter (nM)

1) GCAGUGAUGUUGCGGAUGUACAGUGGGAUACGAGGACCGGUACGGCCGCCACUCGUACAGAACAAGCUAAUACAUCGAUAGGUGA [XII]
265
2) CCUCACGUAGGACUAGUGAUGUUAGACUACCGAGGACCGGUACGGCCGCCACUCGUCGUACAAGAUAACCUUCCGCCAGUAUACG
110
3) AGAACUGUCUGAGAUACCAGCCAUAGGAGUGAUGUUCCUAGCUCCACAAAGUGGAGCCAUGGCCCUUGGCAGCUCAGACAGUUCA [Omei KL Theo B SS A v8]
219
4) AUUAUAAAGGCGGCCGCCACUAGUGAUGUUAGUGACUUAUGUAUUAUCAUAAGAAUAAAAUAAAAUAGGACCGGGCCAAAAUAUU [AstrosExTryB#3]
527
5) GGCAUGCAUGGAAACAUGCAUGCCAUGCCUCGAGGACCGGUACGGCCGCCACUCGUUAAAAGAAAUGCCAGUGAUGUUGGCCGAA
443
6) UAGCGUCUGCGAGGAUAUCGGAUUAGAGUGAUGUUCUAAAGACGCCCAGUGAUGUUGGAUGCGAUACGAGAAGGCGCUGGGCGCG [Same State FMN B GF7]
182
7) AAUGUACAGGGAAGGAGCGUAGUCCAGUGAUGUUGGAAUUAAAUUCCUGCGAUGUUGGUUAUACAGGUAGGUCGCCCUAAAGUGC [KL-XARG-B22]
367
8) ACGUAUAUCAGAGGAUAUCGUAUUAAUAUUUUAUCUAUAUAUUAUAGCAGUGAUGUUGCAAUUAUUCGAGAAGGCUGAUUUACGA [JR_SSFMNB_Sub023]
144
9) AGGAUCACGUCAGUGAUGUUGACAAGAGAUACCAGAGACGAAAGUCUCCCUUGGCAGCUCAUCGUGAUCCGUGACAAAGGUCACA [Omei KL hio A SS C v3]
262
10) GCCAUCAGGUCGCAAGACCUGAUAGCCGAUACCAGCGCGAAGGUGCGCCCUUGGCAGCGGCACCGAGUGAUGUUCGGUCAGGCGG [#2 Same State - Theophylline A Attempt #3 (HarryS)]
490
11) UACAAUUUGGCGGCCGCCACUGACCAUAGCCUUCGAUGGCCAGUGAUGUUGGCCUCUGGCUCUAACAGGACCGGGCCAAAUUAUG [Maeste]
313
12) GCGAACAUUCGCAGUGAUGUUGCGACGGAAGGAGCGCGUGAAAACGCAGGUAGGUCGCCGACAAAAUUAAUUUUAAUGUGUUCGC [Arginine A K4 27]
373
